# procedure_text: Cytotoxicity against mouse 3T3 cells assessed as cell viability at 0.1 uM measured after 24 hrs by MTT assay relative to control
# Type: cell-based
# condition_parameters: read-out: Activity
property_measured: viability at 24 h, 0.1 µM (%)
Give just the number in %; leave the unit off.

- test_smiles: "Cn1c(=O)sc2cc(NC(=O)CCCCN3CCC(c4ccccc4)CC3)ccc21"
  unit: "%"
  reported_result: 98.9

// next item, viability at 24 h, 0.1 µM requested
Input: # get_value(readout='viability at 24 h, 0.1 µM', item= `Cn1c(=O)sc2cc(C(=O)CCN3CCN(Cc4ccccc4)CC3)ccc21` )
Output: 102

Where these numbers come from: ChEMBL document CHEMBL4706649
